# melting point annotations
Please reply with the bare figure in °C and do not write the unit itself.

Example results:
molecule: Cc1ncsc1C
measured-property: melting point
measurement-unit: °C
test-value: 83.5
--
molecule: CC(=O)CCc1cc2c(cc1[N+](=O)[O-])CCC(C)N2C(=O)c1ccccc1 (stereo unspecified)
measured-property: melting point
measurement-unit: °C
test-value: 138

Switching to the query record.
Could you please provide reported melting point for `O=C(c1cc(O)c(O)c(O)c1)c1ccc(O)c(O)c1O` ? Thanks!
270

* * *

measured-property: melting point (°C)
Form entry: value (°C) — number only.

Example cases with answers are listed next.
compound: CC(=O)C1CCC2C3CCC4CC(=O)CCC4(C)C3CCC12C (stereo unspecified)
test-value: 200
--
compound: NS(=O)(=O)c1ccc(N2C(=O)CC(c3ccccc3)C2=O)c(Cl)c1 (stereo unspecified)
test-value: 206
--
compound: Brc1ccc(Sc2ccc(Br)cc2)cc1
test-value: 115
--
compound: O=[N+]([O-])c1c(Cl)cccc1Cl
test-value: 72.5

Could you now look at the following compound, please?
Tell me melting point reported for C#CC1(O)CCC2C3CC=C4CC(O)CCC4(C)C3CCC21C (stereo unspecified)
248

* * *

The following molecules are shown together with reported melting point values.
Expressed in °C, but write only the number.

input-smiles: Cc1c(N/N=C(/C(=O)c2cccc3ccccc23)S(=O)(=O)c2ccccc2)c(=O)n(-c2ccccc2)n1C
melting point (°C): 110

input-smiles: CC(=O)Oc1c(-c2ccc(-c3[nH]c4cc([N+](=O)[O-])ccc4c3OC(C)=O)cc2)[nH]c2cc([N+](=O)[O-])ccc12
melting point (°C): 280

input-smiles: Clc1ccccc1-c1nnc(-c2ccccc2Cl)nn1
melting point (°C): 183

Consider the molecule `Cn1c(=O)c(C2=NNC(=O)C2=NNc2ccccc2Br)c(O)c2ccccc21` and give its recorded melting point.
270

Report melting point for `COc1ccc(C=CC(=O)c2ccc(OC)cc2OC)cc1`
97

* * *

This section presents compounds with their documented melting point values.

compound: O=C1NC(=O)C2CC(c3ccccc3)CCC12 (configuration not stated)
melting point: 134 to 136 °C

Supply melting point value. Item: `Cc1ccccc1NN=C1C(=O)CC(C)(C)CC1=O`
109 °C

Please indicate melting point recorded for `O=C(Cl)c1csc(-c2ccccc2)n1`
100 °C

* * *

measured-property: melting point (°C)
# value in °C; strip the unit string

Below, 5 compounds whose answers are already recorded.
input-smiles: O=C(O)c1c(C(F)(F)F)ccnc1F
measurement-unit: °C
melting point: 92
//
input-smiles: Cc1cc(O)ccc1F
measurement-unit: °C
melting point: 32
//
input-smiles: Fc1cccc(F)c1
measurement-unit: °C
melting point: -59
//
input-smiles: CC(=O)OCCN(CCOC(C)=O)CCOC(C)=O
measurement-unit: °C
melting point: -40
//
input-smiles: CC(=O)Oc1c(-c2ccccc2)[nH]c2cc3c(cc12)C(=O)C(c1ccccc1)=[N+]3[O-]
measurement-unit: °C
melting point: 246

Find the measured melting point of `COc1cc(C=C2CCCC(=Cc3ccc(O)c(OC)c3)C2=O)ccc1O` and report it.
178

Given `Cc1nc2ccccc2[nH]c(=O)c1=NNc1ccc(Cl)cc1` , respond with its melting point.
175

Consider the compound `O=C(OCc1ccccc1)c1cccnc1` . State its measured melting point.
22

Specify melting point for `Fc1ccc(Br)cc1Br` and stop.
69

Supply recorded melting point for `Nc1ccc([N+](=O)[O-])c(Cl)c1` here.
159

Kindly indicate its recorded melting point. Item: `CCN=C=S`
-5.9

Give the measured melting point for `Cc1ccc2cc[nH]c2c1`
31

* * *

Lab note - cut at 100 °C for melting point: label 1 if strictly below, label 0 if not.

Some solved cases for reference:
molecule: OCc1ccccc1C(c1ccc(O)cc1)c1ccc(O)cc1
cat: label 0

molecule: CSC#N
cat: label 1

molecule: COc1cc(C2Nn3c(nnc3-c3ccccc3)S2)ccc1O (stereo unspecified)
cat: label 0

Decide: melting point of `Cc1ccc(N=C=Nc2ccc(C)cc2)cc1` strictly below 100 °C?
label 1

* * *

Strictly below 100 °C in melting point: 1. Otherwise: -1.

molecule: CCC(C)(C)C(C)(C)O
cat: 1
//
molecule: O=C(NC(=O)c1ccccc1)c1ccccc1
cat: -1
//
molecule: C/C(OCCc1ccccc1)=C(/C#N)c1ccccc1
cat: -1

Consider the record given below.
Confirm or reject: melting point of `NCCCCCCCCN` lies strictly below 100 °C
1

* * *

Would you mind labelling by melting point? At or over 80 °C is 1 (yes), under is 0 (no).

Previously resolved entries follow.
compound: CC(=Cc1ccc(C(=O)O)cc1)c1ccc2c(c1)C(C)(C)CCC2(C)C
cat: 1 (yes)

compound: CC1=CCCC1C (configuration not stated)
cat: 0 (no)

compound: COc1ccc2cnc(C)cc2c1
cat: 1 (yes)

compound: CCCCCCC(C)CCC (configuration not stated)
cat: 0 (no)

Would you say `C=CC(=O)OCCCCCC` shows melting point at minimum 80 °C?
0 (no)

Is the recorded value of melting point equal to or greater than 80 °C for this compound? `CCOC(=O)C(C#N)=C1CC(SC)=C(C(=O)OCC)C(=N)N1c1ccc(OC)cc1`
1 (yes)

Could you please find out whether `O=[N+]([O-])c1ccc2c(c1)Cc1cc([N+](=O)[O-])ccc1-2` has melting point that meets 80 °C or exceeds it?
1 (yes)

Could you verify whether the entry `Cc1c(C(N)=O)cc([N+](=O)[O-])cc1[N+](=O)[O-]` shows melting point of no less than 80 °C?
1 (yes)

* * *

Recorded melting point, one value per entry.

molecule: Fc1cc(Cl)cc(CBr)c1
measured-property: melting point
test-value: 25 to 30 °C

Given the molecule `CCC(=O)c1ccc(C(F)(F)F)cc1` , write its reported melting point.
36 to 37 °C

Using known records, supply melting point for `Cc1c(Cl)cc([N+](=O)[O-])cc1Cl`
63 to 64 °C

Return melting point for the following molecule: CN1CCN(C(=O)OC2C3=C(SCCS3)C(=O)N2c2ccc3ccc(Cl)nc3n2)CC1 (configuration not stated)
280 °C

Supply recorded melting point for `CNC(=O)Oc1ccccc1C1OCCO1` here.
114 °C

Give me measured melting point, please, for this molecule: `Nc1ccc(CC(=O)O)cc1`
200 °C

Return melting point (reported value) for this molecule: `COc1cc(N=Nc2c(Br)cc([N+](=O)[O-])cc2[N+](=O)[O-])c(NC(C)=O)c(N(CCOC(C)=O)CCOC(C)=O)c1`
132 °C

Report measured melting point; entry is `Cc1ccc(C(=O)C=Cc2cccc([N+](=O)[O-])c2)cc1`
134 to 137 °C

Hello, please tell me recorded melting point for this one: O=C(C1=NOC2C(=O)N(c3ccc(Cl)cc3)C(=O)C12)c1ccco1 (configuration not stated)
171 °C

Identify melting point associated with the molecule `CCOC(=O)c1cn[nH]c1NC(=O)Nc1cccc(Cl)c1`
257 to 259 °C

* * *

measured-property: melting point (°C)
Return type: number; implicit unit °C.

Retrieve melting point measured for `CCOC(=O)c1c[nH]c(=S)[nH]c1=O` and print it.
252

* * *

Quick list: melting point per entry.
Answer in °C, number only, no unit symbol.

Example results:
compound: Cc1ccc(C(=O)N(NC(=O)c2ccccc2)C(C)(C)C)cc1
melting point / °C: 188
--
compound: CCCCCNc1ccc(NCCCCC)c2c1C(=O)c1ccccc1C2=O
melting point / °C: 210
--
compound: CCOC(=O)c1nn(-c2ccc(C)cc2)c(C)c1C(=O)c1noc(-c2ccc(Br)cc2)c1S(=O)(=O)c1ccccc1
melting point / °C: 170
--
compound: COc1ccc2[nH]cc(CCNC(C)=O)c2c1
melting point / °C: 117
--
compound: CCOC(=O)NC(C)(C)Cc1ccc(Cl)cc1
melting point / °C: 52.8
--
compound: O=C(CC(=O)c1ccccc1O)c1ccccc1
melting point / °C: 120
--
compound: Cc1ccc(Cl)c([N+](=O)[O-])c1
melting point / °C: 7
--
compound: CCN(CC)c1cccc(O)c1
melting point / °C: 78
--
compound: O=C(NCCCBr)c1cc([N+](=O)[O-])cc([N+](=O)[O-])c1
melting point / °C: 195
--
compound: CC(=O)OCC1OC(OC2(COC(C)=O)OC(COC(C)=O)C(OC(C)=O)C2OC(C)=O)C(OC(C)=O)C(OC(C)=O)C1OC(C)=O (centres undefined)
melting point / °C: 86.5

For the compound `COc1ccc(C(O)c2ccc(OC)cc2)cc1` , give its reported melting point.
70

Name the recorded melting point of the compound listed here: O=P1(N(CCCl)CCCl)NCCCO1 (centres undefined)
51.5

Please give measured melting point of the following entry: `CC(C)(C)c1cc(O)cc(C(C)(C)C)c1`
88

Quick one: give measured melting point for `COc1cccc(OC)c1P(c1c(OC)cccc1OC)c1c(OC)cccc1OC`
155

In one line, give reported melting point of the entry `Cc1ccc2c(c1)C(=O)C2` .
46
